# Tgt: ERα (Homo sapiens)
# Construct: endogenous in cells; host or cells: MCF-7
# Test Name: ER degradation in MCF-7 cells (Western blot)
# Type: cell-based
# Measurement Context: ER degradation, 24 hours
Measured DC50 values are reported for all entries that follow.

Molecule | DC50
CC/C(=C(\c1ccc(OCCN2CCN(CC3CCN(c4ccc5c(c4)CN([C@H]4CCC(=O)NC4=O)C5=O)CC3)CC2)cc1)c1ccc(B(O)O)cc1)c1ccccc1 | < 10 nM
CC/C(=C(\c1ccc(O)cc1)c1ccc(OCCN2CCN(C(=O)N3CCN(c4ccc5c(c4)CN([C@@H]4CCC(=O)NC4=O)C5=O)CC3)CC2)cc1)c1ccccc1 | < 10 nM
CC/C(=C(\c1ccc(OCCN2CCC(CN3CCN(c4ccc5c(c4)C(=O)N(C4CCC(=O)NC4=O)C5=O)CC3)CC2)cc1)c1ccc(B(O)O)cc1)c1ccccc1 (centres unmarked) | 10 to 50 nM
CC/C(=C(\c1ccc(B(O)O)cc1)c1ccc(N2CCC(CNC3CCN(c4ccc5c(c4)CN(C4CCC(=O)NC4=O)C5=O)CC3)CC2)cc1)c1ccccc1 (centres unmarked) | < 10 nM
CC/C(=C(\c1ccc(OCCN2CCN(CCN3CCN(c4ccc5c(c4)C(=O)N(C4CCC(=O)NC4=O)C5=O)CC3)CC2)cc1)c1ccc(B(O)O)cc1)c1ccccc1 (centres unmarked) | < 10 nM
CC/C(=C(/c1ccc(OCCN2CCC(CN3CCN(c4ccc5c(c4)CN([C@@H]4CCC(=O)NC4=O)C5=O)CC3)CC2)cc1)c1ccc(B(O)O)cc1)c1ccccc1 | < 10 nM
CC/C(=C(\c1ccc(B(O)O)cc1)c1ccc(N2CCN(CCN3CCN(c4ccc5c(c4)CN(C4CCC(=O)NC4=O)C5=O)CC3)CC2)cc1)c1ccccc1 (centres unmarked) | < 10 nM
CC/C(=C(\c1ccc(B(O)O)cc1)c1ccc(N2CCN(C(=O)N3CCC(N4CCN(c5ccc6c(c5)CN(C5CCC(=O)NC5=O)C6=O)CC4)CC3)CC2)cc1)c1ccccc1 (centres unmarked) | 10 to 50 nM
CC/C(=C(\c1ccc(B(O)O)cc1)c1ccc(N2CCN(C(=O)N3CCN(c4ccc5c(c4)CN(C4CCC(=O)NC4=O)C5=O)CC3)CC2)cc1)c1ccccc1 (centres unmarked) | < 10 nM
CC/C(=C(/c1ccc(O)cc1)c1ccc(OCCN2CCN(C(=O)N3CCN(c4ccc5c(c4)CN(C4CCC(=O)NC4=O)C5=O)CC3)CC2)cc1)c1ccccc1 (centres unmarked) | < 10 nM
CC/C(=C(\c1ccc(B(O)O)cc1)c1ccc(N2CCN(CCCC3CCN(c4ccc5c(c4)CN(C4CCC(=O)NC4=O)C5=O)CC3)CC2)cc1)c1ccccc1 (centres unmarked) | < 10 nM

----------
# Tgt: ERα (Homo sapiens, UniProt P03372)
# Construct: endogenous in cells; host or cells: MCF-7
# Sequence (P03372 1-595): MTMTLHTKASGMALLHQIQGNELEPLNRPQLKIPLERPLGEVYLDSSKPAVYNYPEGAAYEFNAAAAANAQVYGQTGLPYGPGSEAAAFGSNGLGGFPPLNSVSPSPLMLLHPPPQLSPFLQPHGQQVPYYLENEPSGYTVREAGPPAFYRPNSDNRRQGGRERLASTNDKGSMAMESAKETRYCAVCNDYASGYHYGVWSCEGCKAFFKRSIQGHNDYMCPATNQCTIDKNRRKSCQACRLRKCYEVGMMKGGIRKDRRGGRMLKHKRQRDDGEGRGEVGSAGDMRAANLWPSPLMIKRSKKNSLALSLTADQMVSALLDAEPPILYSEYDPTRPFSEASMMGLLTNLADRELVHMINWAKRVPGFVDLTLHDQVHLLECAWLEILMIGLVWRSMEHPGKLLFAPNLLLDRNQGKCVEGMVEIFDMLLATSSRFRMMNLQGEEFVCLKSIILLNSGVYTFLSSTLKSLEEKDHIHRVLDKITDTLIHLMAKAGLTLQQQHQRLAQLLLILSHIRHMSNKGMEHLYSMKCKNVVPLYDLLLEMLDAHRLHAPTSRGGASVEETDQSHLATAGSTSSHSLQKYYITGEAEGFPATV
# Test Name: ER degradation in MCF-7 cells (Western blot)
# Format: cell-based
# Measurement Context: ER degradation, 24 hours
Measured DC50 values are reported for all entries that follow.

Compound | DC50
CC/C(=C(\c1ccc(OCCN2CCN(C(=O)N3CCN(c4ccc5c(c4)CN([C@H]4CCC(=O)NC4=O)C5=O)CC3)CC2)cc1)c1ccc(B(O)O)cc1)c1ccccc1 | < 10 nM
CC/C(=C(\c1ccc(B(O)O)cc1)c1ccc(C2CCN(CCCN3CCN(c4ccc5c(c4)C(=O)N(C4CCC(=O)NC4=O)C5=O)CC3)CC2)cc1)c1ccccc1 (stereo not drawn) | < 10 nM
CC/C(=C(/c1ccc(OCCN2CCN(CC3CCN(c4ccc5c(c4)C(=O)N(C4CCC(=O)NC4=O)C5=O)CC3)CC2)cc1)c1ccc(B(O)O)cc1)c1ccccc1 (stereo not drawn) | < 10 nM
CC/C(=C(/c1ccc(B(O)O)cc1)c1ccc(N2CCC(CCN3CCN(c4ccc5c(c4)CN(C4CCC(=O)NC4=O)C5=O)CC3)CC2)cc1)c1ccccc1 (stereo not drawn) | 10 to 50 nM
CC/C(=C(/c1ccc(OCCN2CCC(N3CCN(c4ccc5c(c4)C(=O)N(C4CCC(=O)NC4=O)C5=O)CC3)CC2)cc1)c1ccc(B(O)O)cc1)c1ccccc1 (stereo not drawn) | 10 to 50 nM
CC/C(=C(/c1ccc(B(O)O)cc1)c1ccc(N2CCN(CCC3CCN(c4ccc5c(c4)CN(C4CCC(=O)NC4=O)C5=O)CC3)CC2)cc1)c1ccccc1 (stereo not drawn) | < 10 nM
CC/C(=C(/c1ccc(B(O)O)cc1)c1ccc(N2CCN(C(=O)N3CCN(c4ccc5c(c4)CN([C@H]4CCC(=O)NC4=O)C5=O)CC3)CC2)cc1)c1ccccc1 | < 10 nM
CC/C(=C(\c1ccc(B(O)O)cc1)c1ccc(N2CCC(CCN3CCN(c4ccc5c(c4)CN(C4CCC(=O)NC4=O)C5=O)CC3)CC2)cc1)c1ccccc1 (stereo not drawn) | 10 to 50 nM
CC/C(=C(/c1ccc(B(O)O)cc1)c1ccc(N2CCN(CCC3CCN(c4ccc5c(c4)C(=O)N(C4CCC(=O)NC4=O)C5=O)CC3)CC2)cc1)c1ccccc1 (stereo not drawn) | < 10 nM
CC/C(=C(/c1ccc(B(O)O)cc1)c1ccc(N2CCN(C(=O)N3CCN(c4ccc5c(c4)CN([C@@H]4CCC(=O)NC4=O)C5=O)CC3)CC2)cc1)c1ccccc1 | < 10 nM
CC/C(=C(/c1ccc(OCCN2CCN(CC3CCN(c4ccc5c(c4)CN([C@H]4CCC(=O)NC4=O)C5=O)CC3)CC2)cc1)c1ccc(B(O)O)cc1)c1ccccc1 | < 10 nM
CC/C(=C(/c1ccc(OCCN2CCN(C(=O)N3CCN(c4ccc5c(c4)CN(C4CCC(=O)NC4=O)C5=O)CC3)CC2)cc1)c1ccc(B(O)O)cc1)c1ccccc1 (stereo not drawn) | < 10 nM
CC/C(=C(\c1ccc(B(O)O)cc1)c1ccc(N2CCC(CCCN3CCN(c4ccc5c(c4)CN(C4CCC(=O)NC4=O)C5=O)CC3)CC2)cc1)c1ccccc1 (stereo not drawn) | < 10 nM
CC/C(=C(/c1ccc(OCCN2CCN(c3ccc4c(c3)C(=O)N(C3CCC(=O)NC3=O)C4=O)CC2)cc1)c1ccc(B(O)O)cc1)c1ccccc1 (stereo not drawn) | 10 to 50 nM
CC/C(=C(\c1ccc(B(O)O)cc1)c1ccc(N2CCC(CCCN3CCN(c4ccc5c(c4)C(=O)N(C4CCC(=O)NC4=O)C5=O)CC3)CC2)cc1)c1ccccc1 (stereo not drawn) | < 10 nM
